Target: human recombinant COX2 (hCOX2) (UniProt P35354)
Test: LCMS-based COX2 enzymatic inhibition assay (PGE2 quantification)
Format: biochemical
Parameters: COX2 2 minutes pge2/pge2d4 area ratio Avg; other: 2 minutes; readout pge2/pge2d4 area ratio; average; COX2 2 minutes pge2/pge2d4 area ratio Avg; LLE; average LLE; COX2 2 minutes pge2 area (counts) Avg; readout pge2 area (counts); other: 2 min; "ovine COX2 (oCOX2), human recombinant COX2 (hCOX2)"
Conditions: 2 minutes; readout pge2/pge2d4 area ratio; average; read-out: COX2 2 minutes pge2/pge2d4 area ratio Avg. IC50
pIC50: −log10 of the molar value.
measure-name: pIC50

Field: example entries. Status: answers known.
| compound-structure | pIC50 |
| --- | --- |
| CS(=O)(=O)c1ccc(-n2ccc3ccc(NCc4cccs4)nc32)cc1 | 7.51 |
| CS(=O)(=O)c1ccc(-c2cc(NCc3cccs3)cnn2)cc1 | 5.78 |
| COc1ncc(-c2ccc(S(C)(=O)=O)cc2)nc1NCc1ccccn1 | 5.37 |

[a] CS(=O)(=O)c1ccc(-c2cncc(OCc3cncs3)n2)cc1
[b] CS(=O)(=O)c1ccc(-c2cncc(NCc3ccno3)n2)cc1
Problem: Name the one with the greater pIC50 value, either a or b as given. Field: selected label. Fill in the label of the entry you choose.
Result: a
(a: 6.69, b: 5.98)
